# Target Entity: recombinant rabbit GSK-3β protein (Oryctolagus cuniculus)
# Construct: purchased New England Biolabs
# Experiment Description: Glycogen Synthase Kinase-3 Assay
# Type: biochemical
# Settings: PPI-2 substrate, 33P-ATP, 90 minutes at 30° C.
Measured IC50 values are reported for all entries that follow.

Molecule: CN(C)CCCn1nc(C2=C(c3cn(-c4ccccc4)c4ccc(Cl)cc34)C(=O)NC2=O)c2ccccc21 [Compound 48]
IC50 / µM: 0.09
//
Molecule: CC(=O)OCCCn1nc(C2=C(c3cn(C)c4ccc(Cl)cc34)C(=O)NC2=O)c2ccccc21 [Compound 76]
IC50 / µM: 0.085
//
Molecule: O=C1NC(=O)C(c2nn(CCCO)c3ccccc23)=C1c1cn(-c2cccnc2)c2ccccc12 [Compound 94]
IC50 / µM: 0.058
//
Molecule: C=Cn1cc(C2=C(c3nn(CC(O)CN(C)C)c4ccccc34)C(=O)NC2=O)c2ccccc21 (stereo not drawn) [Compound 1]
IC50 / µM: 0.09
//
Molecule: COCCCn1nc(C2=C(c3cn(-c4cccnc4)c4ccccc34)C(=O)NC2=O)c2ccccc21 [Compound 117]
IC50 / µM: 0.07
//
Molecule: O=C1NC(=O)C(c2nn(CCCO)c3ccccc23)=C1c1cn(-c2ccccn2)c2ccccc12 [Compound 102]
IC50 / µM: 0.21
//
Molecule: CN(C)CCCn1nc(C2=C(c3cn(C)c4ccc(Cl)cc34)C(=O)NC2=O)c2ccccc21 [Compound 43]
IC50 / µM: 0.034
//
Molecule: CN(C)CCCn1nc(C2=C(c3cn(-c4ccncc4)c4ccccc34)C(=O)NC2=O)c2ccccc21 [Compound 32]
IC50 / µM: 0.51
//
Molecule: CN(C)CCCn1nc(C2=C(c3cn(-c4cccs4)c4ccc(Cl)cc34)C(=O)NC2=O)c2ccccc21 [Compound 33]
IC50 / µM: 0.07
//
Molecule: O=C1NC(=O)C(c2nn(CCOCCO)c3ccccc23)=C1c1cn(-c2cccnc2)c2ccccc12 [Compound 106]
IC50 / µM: 0.033
//
Molecule: CNCCCn1nc(C2=C(c3cn(C)c4ccc(Cl)cc34)C(=O)NC2=O)c2ccccc21 [Compound 80]
IC50 / µM: 0.051
//
Molecule: O=C1NC(=O)C(c2nn(CCCO)c3ccccc23)=C1c1cn(-c2cncc3ccccc23)c2ccccc12 [Compound 105]
IC50 / µM: 0.073
//
Molecule: O=C1NC(=O)C(c2nn(CCCN3CCOCC3)c3ccccc23)=C1c1cn(-c2cccnc2)c2ccccc12 [Compound 68]
IC50 / µM: 0.096
//
Molecule: C=Cn1cc(C2=C(c3nn(CC(O)CN(C)C)c4ccc(Cl)cc34)C(=O)NC2=O)c2ccccc21 (stereo not drawn) [Compound 4]
IC50 / µM: 0.27
//
Molecule: O=C1NC(=O)C(c2nn(CCCO)c3ccccc23)=C1c1cn(-c2cnc3ccccc3c2)c2ccccc12 [Compound 107]
IC50 / µM: 0.82

###

Measured IC50 values are reported for all entries that follow.
# Target Entity: PKC β-II (Homo sapiens, UniProt P05771)
# Sequence (P05771 1-673 isoform P05771-2): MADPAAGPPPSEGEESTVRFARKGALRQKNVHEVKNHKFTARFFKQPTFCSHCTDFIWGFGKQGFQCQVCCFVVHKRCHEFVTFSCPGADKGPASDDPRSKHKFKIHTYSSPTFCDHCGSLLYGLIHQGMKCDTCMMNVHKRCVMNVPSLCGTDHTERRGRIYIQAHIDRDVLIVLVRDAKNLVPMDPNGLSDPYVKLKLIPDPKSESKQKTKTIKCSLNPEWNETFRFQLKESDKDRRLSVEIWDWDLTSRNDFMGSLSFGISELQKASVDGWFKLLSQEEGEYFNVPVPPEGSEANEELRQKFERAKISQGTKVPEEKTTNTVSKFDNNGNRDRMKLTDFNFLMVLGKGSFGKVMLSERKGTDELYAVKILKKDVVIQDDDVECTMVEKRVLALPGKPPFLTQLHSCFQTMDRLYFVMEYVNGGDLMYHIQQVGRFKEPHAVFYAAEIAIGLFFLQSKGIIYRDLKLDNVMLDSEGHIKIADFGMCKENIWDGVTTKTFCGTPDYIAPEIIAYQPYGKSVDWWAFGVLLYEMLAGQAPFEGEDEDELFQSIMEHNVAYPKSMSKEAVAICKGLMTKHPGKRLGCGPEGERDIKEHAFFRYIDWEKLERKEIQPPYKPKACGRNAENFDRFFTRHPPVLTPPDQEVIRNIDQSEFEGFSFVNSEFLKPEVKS
# Experiment Description: Protein Kinase C Histone-Based Assay, β-II isoform
# Assay type: biochemical
# Settings: histone III substrate, 30 μM ATP, 10 min at 30° C.; read-out: PKC Activity (IC50 μM, Histone Based Assay) Beta II
Assay Endpoint: IC50 (µM)

Entry Smiles: CN(C)CCn1nc(C2=C(c3cn(-c4csc5ccccc45)c4ccccc34)C(=O)NC2=O)c2ccccc21
Assay Endpoint: IC50
Obs Value: 0.02

Entry Smiles: CN(C)CCCn1nc(C2=C(c3cn(-c4cccnc4)c4ccccc34)C(=O)NC2=O)c2ccccc21
Assay Endpoint: IC50
Obs Value: 0.007

Entry Smiles: O=CCCn1nc(C2=C(c3cn(-c4cnc5ccccc5c4)c4ccccc34)C(=O)NC2=O)c2ccccc21
Assay Endpoint: IC50
Obs Value: 0.054

Entry Smiles: CN(C)CCn1nc(C2=C(c3cn(-c4ccc5ccccc5c4)c4ccccc34)C(=O)NC2=O)c2ccccc21
Assay Endpoint: IC50
Obs Value: 0.019

###

Measured IC50 values are reported for all entries that follow.
# Target Entity: recombinant rabbit GSK-3β protein (Oryctolagus cuniculus, UniProt G1T8E2)
# Construct: purchased New England Biolabs
# Sequence (G1T8E2 1-432): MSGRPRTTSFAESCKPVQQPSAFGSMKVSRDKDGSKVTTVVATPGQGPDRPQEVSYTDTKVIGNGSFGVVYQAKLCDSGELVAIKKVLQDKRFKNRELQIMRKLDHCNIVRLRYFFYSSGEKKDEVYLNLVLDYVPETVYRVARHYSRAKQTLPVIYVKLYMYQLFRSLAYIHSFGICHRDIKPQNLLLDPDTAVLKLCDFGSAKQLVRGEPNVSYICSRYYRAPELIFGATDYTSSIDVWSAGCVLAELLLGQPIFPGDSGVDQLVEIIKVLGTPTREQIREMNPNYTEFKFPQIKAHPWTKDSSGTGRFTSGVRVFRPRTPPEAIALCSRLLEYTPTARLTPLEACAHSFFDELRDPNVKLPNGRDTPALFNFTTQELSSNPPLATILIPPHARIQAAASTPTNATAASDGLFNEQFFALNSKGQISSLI
# Experiment Description: Glycogen Synthase Kinase-3 Assay
# Format: biochemical
# Settings: PPI-2 substrate, 33P-ATP, 90 minutes at 30° C.
Assay Endpoint: IC50 (µM)

Entry Smiles: C=Cn1cc(C2=C(c3nn(CCCN(C)C)c4ccccc34)C(=O)NC2=O)c2cc(Cl)ccc21
Target Entity: recombinant rabbit GSK-3β protein (Oryctolagus cuniculus, UniProt G1T8E2)
Assay Endpoint: IC50
Result Unit: µM
Obs Value: 0.048
//
Entry Smiles: O=C1NC(=O)C(c2nn(CCO)c3ccccc23)=C1c1cn(-c2cccnc2)c2ccccc12
Target Entity: recombinant rabbit GSK-3β protein (Oryctolagus cuniculus, UniProt G1T8E2)
Assay Endpoint: IC50
Result Unit: µM
Obs Value: 0.075
//
Entry Smiles: C=Cn1cc(C2=C(c3nn(CCCN(C)C)c4ccccc34)C(=O)NC2=O)c2ccccc21
Target Entity: recombinant rabbit GSK-3β protein (Oryctolagus cuniculus, UniProt G1T8E2)
Assay Endpoint: IC50
Result Unit: µM
Obs Value: 0.049
